Kindly supply the reported inhibition at 10 µM values for the records listed here.
- measurement target: α1-subunit of the GABAA receptor (Rattus norvegicus, UniProt P62813)
- Construct: the cerebellum (tissue that mostly contains α1-GABAA receptor); from tissue; host or cells: rat cerebellum membranes
- test method notes: Ligand-binding assay, radiolabeled flumazenil competition, cerebellum membranes
- experimental conditions: 10^−5 M test compound, 1 nM radiolabeled flumazenil, read-out: % Inhib 10^−5M (affinity for the α1-subunit of the GABAA receptor)
Response body: numeric value in %, unit text excluded.

Would you mind telling me what inhibition at 10 µM value was observed for Cc1ccc(-c2nc3ccc(C)cn3c2CC(=O)NN)cc1 [Example 3] ? 98.7

Would you mind telling me what inhibition at 10 µM value was observed for Cc1ccc(-c2nc3ccc(C)cn3c2CC(=O)N(C)C)cc1 [Zolpidem, reference compound] ? 73.6

Would you mind telling me what inhibition at 10 µM value was observed for C/C=N/NC(=O)Cc1c(-c2ccc(C)cc2)nc2ccc(C)cn12 [Example 8] ? 97.6

Would you mind telling me what inhibition at 10 µM value was observed for Cc1ccc(-c2nc3ccc(C)cn3c2CC(=O)N/N=C/c2ccc(Cl)cc2)cc1 [Example 7] ? 46.1

Would you mind telling me what inhibition at 10 µM value was observed for CC(C)=NNC(=O)Cc1c(-c2ccc(C)cc2)nc2ccc(C)cn12 [Example 9] ? 98.5

Would you mind telling me what inhibition at 10 µM value was observed for Cc1ccc(-c2nc3ccc(C)cn3c2CC(=O)N(C)N)cc1 [Example 6] ? 99
